Recorded Response values for a group of binders are listed next.
Biological target: T1, cyIL1RAP-His (Lake Pharma) (cynomolgus monkey, UniProt A0A2K5X5J5 21-367)
T1 construct: Bought protein (Lake Pharma, lot 16205819371); also called cynomolgus IL1RAP; monkey IL1RAP; not shown: His tag
T1 sequence: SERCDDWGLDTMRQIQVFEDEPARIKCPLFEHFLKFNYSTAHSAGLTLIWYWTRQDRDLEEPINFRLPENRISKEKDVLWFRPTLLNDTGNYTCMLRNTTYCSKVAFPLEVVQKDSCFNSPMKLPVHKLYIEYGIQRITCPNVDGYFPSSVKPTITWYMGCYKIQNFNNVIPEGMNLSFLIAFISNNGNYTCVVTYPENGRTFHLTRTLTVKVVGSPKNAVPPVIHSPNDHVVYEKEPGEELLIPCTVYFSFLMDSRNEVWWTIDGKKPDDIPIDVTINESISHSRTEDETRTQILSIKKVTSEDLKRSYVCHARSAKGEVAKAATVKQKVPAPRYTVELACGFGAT
Assay: Octet BLI; mAb captured on anti-mouse IgG Fc sensor; cyIL1RAP-His analyte
Give the value as a plain number.

[
  {
    "BINDER": "STLX2005 (antibody, V domains shown, Purified from hybridoma of immunized Alivamab mice; intact IgG; captured on anti-mouse IgG Fc sensors in Octet; kappa light chain; also called 74804_05B24A) VH: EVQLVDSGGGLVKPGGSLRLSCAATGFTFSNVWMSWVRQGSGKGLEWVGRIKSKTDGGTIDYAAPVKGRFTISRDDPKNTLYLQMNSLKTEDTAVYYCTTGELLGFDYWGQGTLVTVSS VL: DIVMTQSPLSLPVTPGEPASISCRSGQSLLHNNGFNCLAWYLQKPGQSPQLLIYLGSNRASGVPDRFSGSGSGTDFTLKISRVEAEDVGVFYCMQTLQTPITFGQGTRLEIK",
    "OBSERVED_RESULT": 0.3
  },
  {
    "BINDER": "STLX2029 (antibody, V domains shown, Purified from hybridoma of immunized Alivamab mice; intact IgG; captured on anti-mouse IgG Fc sensors in Octet; kappa light chain; also called 74804_29D13A) VH: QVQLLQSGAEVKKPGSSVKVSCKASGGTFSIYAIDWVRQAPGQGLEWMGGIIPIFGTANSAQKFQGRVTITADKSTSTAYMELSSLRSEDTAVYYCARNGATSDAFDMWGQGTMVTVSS VL: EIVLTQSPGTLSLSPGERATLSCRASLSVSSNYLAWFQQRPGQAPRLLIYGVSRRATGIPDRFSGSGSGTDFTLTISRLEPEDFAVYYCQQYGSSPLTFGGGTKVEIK",
    "OBSERVED_RESULT": 0.327
  },
  {
    "BINDER": "STLX2012 (antibody, V domains shown, Purified from hybridoma of immunized Alivamab mice; intact IgG; captured on anti-mouse IgG Fc sensors in Octet; kappa light chain; also called 74804_12A21B) VH: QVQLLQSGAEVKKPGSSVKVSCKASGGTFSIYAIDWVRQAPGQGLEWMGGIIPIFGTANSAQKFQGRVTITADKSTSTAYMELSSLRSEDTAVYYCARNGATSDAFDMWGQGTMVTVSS VL: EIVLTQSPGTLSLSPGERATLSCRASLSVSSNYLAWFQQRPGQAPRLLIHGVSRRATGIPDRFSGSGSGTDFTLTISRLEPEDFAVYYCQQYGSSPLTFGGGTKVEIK",
    "OBSERVED_RESULT": 0.328
  },
  {
    "BINDER": "STLX2018 (antibody, V domains shown, Purified from hybridoma of immunized Alivamab mice; intact IgG; captured on anti-mouse IgG Fc sensors in Octet; kappa light chain; also called 74804_18L05A) VH: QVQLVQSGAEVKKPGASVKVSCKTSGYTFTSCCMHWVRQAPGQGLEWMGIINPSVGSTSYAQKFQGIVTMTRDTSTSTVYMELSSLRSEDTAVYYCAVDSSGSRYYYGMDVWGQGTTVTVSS VL: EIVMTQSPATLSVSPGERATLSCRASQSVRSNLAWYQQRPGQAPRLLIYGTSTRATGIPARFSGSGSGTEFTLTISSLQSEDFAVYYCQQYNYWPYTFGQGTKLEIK",
    "OBSERVED_RESULT": 0.168
  },
  {
    "BINDER": "STLX2025 (antibody, V domains shown, Purified from hybridoma of immunized Alivamab mice; intact IgG; captured on anti-mouse IgG Fc sensors in Octet; kappa light chain; also called 74804_25H09A) VH: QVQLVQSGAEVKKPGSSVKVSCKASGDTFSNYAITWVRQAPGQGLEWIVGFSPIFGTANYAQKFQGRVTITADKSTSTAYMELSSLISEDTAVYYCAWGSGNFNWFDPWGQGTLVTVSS VL: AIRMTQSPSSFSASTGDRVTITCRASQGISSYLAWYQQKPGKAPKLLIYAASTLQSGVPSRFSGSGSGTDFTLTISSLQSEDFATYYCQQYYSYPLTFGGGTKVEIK",
    "OBSERVED_RESULT": 0.263
  },
  {
    "BINDER": "STLX2043 (antibody, V domains shown, Purified from hybridoma of immunized Alivamab mice; intact IgG; captured on anti-mouse IgG Fc sensors in Octet; kappa light chain; also called 74804_43F04A) VH: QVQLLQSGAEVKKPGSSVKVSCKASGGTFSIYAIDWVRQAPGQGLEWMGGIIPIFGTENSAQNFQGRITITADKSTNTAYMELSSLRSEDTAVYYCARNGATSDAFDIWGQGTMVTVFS VL: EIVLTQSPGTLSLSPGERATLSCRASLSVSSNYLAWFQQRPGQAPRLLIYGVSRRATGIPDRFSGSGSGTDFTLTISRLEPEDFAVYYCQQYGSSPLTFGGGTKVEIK",
    "OBSERVED_RESULT": 0.286
  }
]

[Q] Supply measured Response of STLX2045 (antibody, V domains shown, Purified from hybridoma of immunized Alivamab mice; intact IgG; captured on anti-mouse IgG Fc sensors in Octet; kappa light chain; also called 74804_45C18A) VH: EVQLVESGGGLVKPGGSLRLACAATGFTFSNVWMSWVRQGSGKGLEWVGRIKSKADGGTIDYAAPVKGRFTISRDDSKNTLYLQMNSLKTEDTAMYYCTTGELLGFDYWGQGTLVTVSS VL: DIVMTQSPLSLPVTPGEPASISCRSGQSLLHSNGFNCLAWYLQKPGQSPQLLIYLGSNRASGVPDRFSGSGSGTDFTLKISRVEAEDVGVYYCMQTLQTPITFGQGTRLEIK in your reply.
[A] 0.277
